- TGT: USP25 (USP25-His6, Boston Biochem E-546) (Homo sapiens)
- Construct: His6; purchased Boston Biochem E-546
- Sequence (Q9UHP3 1-1055): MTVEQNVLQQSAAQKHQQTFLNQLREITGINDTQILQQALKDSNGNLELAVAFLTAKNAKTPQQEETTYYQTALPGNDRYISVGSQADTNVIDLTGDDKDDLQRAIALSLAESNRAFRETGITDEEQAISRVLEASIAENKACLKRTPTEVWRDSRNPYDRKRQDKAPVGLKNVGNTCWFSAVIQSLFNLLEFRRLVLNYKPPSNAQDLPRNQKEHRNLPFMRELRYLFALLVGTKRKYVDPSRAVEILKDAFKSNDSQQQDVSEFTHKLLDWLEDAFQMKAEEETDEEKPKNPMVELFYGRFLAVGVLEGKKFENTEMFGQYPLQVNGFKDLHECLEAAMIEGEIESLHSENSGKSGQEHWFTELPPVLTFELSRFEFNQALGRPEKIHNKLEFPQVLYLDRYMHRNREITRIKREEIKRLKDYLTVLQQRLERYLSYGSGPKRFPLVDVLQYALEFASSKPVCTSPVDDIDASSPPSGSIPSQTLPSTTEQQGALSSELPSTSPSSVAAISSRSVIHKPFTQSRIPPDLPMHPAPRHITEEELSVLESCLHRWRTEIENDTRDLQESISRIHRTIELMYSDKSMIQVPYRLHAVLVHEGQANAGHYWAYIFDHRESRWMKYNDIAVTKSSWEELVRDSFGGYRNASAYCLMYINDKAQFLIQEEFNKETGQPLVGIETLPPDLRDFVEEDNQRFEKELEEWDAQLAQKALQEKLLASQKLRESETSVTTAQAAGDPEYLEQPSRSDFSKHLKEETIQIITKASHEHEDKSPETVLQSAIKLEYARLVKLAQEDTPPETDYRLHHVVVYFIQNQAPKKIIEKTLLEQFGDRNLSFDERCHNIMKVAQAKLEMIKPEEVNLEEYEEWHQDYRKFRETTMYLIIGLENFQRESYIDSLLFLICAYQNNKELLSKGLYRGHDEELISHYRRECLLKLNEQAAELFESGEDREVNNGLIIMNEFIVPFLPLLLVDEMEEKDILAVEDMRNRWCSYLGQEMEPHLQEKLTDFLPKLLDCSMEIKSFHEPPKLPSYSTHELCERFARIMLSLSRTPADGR
- EXPERIMENT_DESCRIPTION: Ubiquitin-Rhodamine 110 Assay for USP25 Activity, Example A-2
- Assay type: biochemical
- COND: Ubiquitin-Rhodamine 110 assay, Example A-2; read-out: USP25 A-2 IC50 range
RECORDED_ENDPOINT: IC50

The following compounds have reported results that may help.
{"columns": ["COMPOUND", "IC50"],
 "data": [
  ["Cc1ccc2c(N)c(C(=O)N[C@H]3COc4cc([C@H]5CCNCC5(F)F)ccc4C3)sc2n1", "50 to 200 nM"],
  ["Cc1ccc2c(N)c(C(=O)N[C@H]3CCc4nc(N5C[C@H](N)[C@@H](C(F)(F)F)C5)ccc4C3)sc2n1", "200 to 2000 nM"],
  ["Cc1ccc2c(N)c(C(=O)N[C@H]3CCc4cc(N5CCNCC5)cc(F)c4C3)sc2n1 (single isomer, unassigned)", "> 2000 nM"]
]}

Turning to the following compound.
Request: Please look up its IC50: COC[C@H]1CN(c2cc(F)c3c(c2F)OC[C@H](NC(=O)c2sc4nc(C)cc(C)c4c2N)C3)C[C@H]1N
Result: 50 to 200 nM
